- ASSAY_METHOD_TEXT: Toxicity liver stage against HepG2, at 10uM
- Assay type: cell-based
- Parameters: test concentration 10 uM, cell line HepG2-A16-CD81EGFP
- TEST_SETTINGS: human, HepG2-A16-CD81EGFP cells; read-out: INHIBITION
PROPERTY_LABEL: cytotoxicity at 10 µM (%)
All answers are understood in %, so give the number only.

Sample answers from the record:
CCn1c(C)cc(C(=O)N2CCCC(n3nc(C)nc3C)C2)c1C (centres undefined) : -11.4
OC(CN1CCN(Cc2ccccc2)CC1)C1CC1 (centres undefined) : 3.3
COCc1cnc2n1CCN(C(=O)c1cn(C)c3ccccc13)C2C (centres undefined) : -108
Cc1nc(CN2CCc3nc(N4CCCC4)nc(NC(C)C)c3C2)cs1 : 2.72
CCOc1ncccc1NC(=O)NC1CCN(S(C)(=O)=O)CC1 : -7.96
COc1ccc(NC(=O)N2CCN(c3ncccn3)CC2)cn1 : 1
NC(=O)N1CCC2(CCN(C(=O)c3cccnc3)CC2)C1 : -83
O=C(Cc1cccs1)N1CCn2cc(Cn3cccn3)nc2C1 : -77.9
Cc1ccccc1CN1CCC[C@H]1c1nc(-c2cncnc2N)no1 : -0.921
O=c1[nH]c(-c2ccncc2)ncc1-c1ccnc(NC2CC2)n1 : -11.7

Looking for the measured cytotoxicity at 10 µM of CC(C)C(=O)Nc1ccc(C(O)Cn2nc(-c3cccs3)oc2=O)cc1 (centres undefined) , can you help?
-5.31

Entry Cc1cc(C)nc(N2CCOC(C)(C(=O)N(C)C)C2)n1 (centres undefined) please
-3.04

Entry CS(=O)(=O)N1C[C@@H](F)[C@@H](OCc2nc3ccccc3o2)C1 please
-4.47
